The entries below come with measured z-score values attached.
- PROTOCOL NOTES: mitochondrial membrane potential change in A549 cells, profiling panel, cell-based, JC-1 fluorescence, basal, 24 h, 100 nL (AID 1138);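 further: A549 lung adenocarcinoma cells under basal conditions with no added stimulus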
- CONDITIONS: higher = more signal
Please reply with the number alone, leaving off any unit.

Example results:
# COMPOUND, z-score
rows = [
    ("Cc1ccc(N2C(=O)c3ccccc3[C@](C)(C(=O)NCC(C)C)[C@@H]2c2ccc(CO)cc2)nc1", -0.393),
    ("COC(=O)[C@H]1[C@@H]2COc3ccccc3[C@H]2N[C@H]1C(=O)OC", 0.603),
    ("Cc1ccccc1C(O)C1C=CC2C(=O)N(c3ccccc3)C(=O)C2N1Nc1ccc(C#N)cc1 (stereo not given)", -0.638),
    ("O=C1c2ccccc2[C@](Cc2ccccc2I)(C(=O)O)[C@H](c2ccc(CO)cc2)N1C1CCCCC1", -0.254),
]

Looking up "C[C@H]1COC(=O)[C@@H]2CCCN2C(=O)[C@@H](C)COC(=O)[C@@H]2CCCN2C1=O" , I found its z-score recorded as 1.05

Looking up "CC(C)[Si]1(C(C)C)O[C@@H](c2ccccc2)c2cc(C3CC3)nc(-c3ccc(Oc4ccccc4)cc3)c21" , I found its z-score recorded as 1.55

Looking up "COCCOC(=O)N1C(=O)[C@@]2(c3cc(C#CC4=CCCCC4)ccc31)[C@H](C(=O)NC[C@H](O)c1ccccc1)[C@H]1C(=O)O[C@H](c3ccccc3)[C@H](c3ccccc3)N1[C@@H]2c1ccc(OCCO)cc1" , I found its z-score recorded as -1.73

Looking up "COC(=O)c1c(CC[C@@H](CO)NC(=O)N[C@H](Cn2cc(-c3cncn3C)nn2)C(C)C)oc(C(C)=O)c1C(=O)OC" , I found its z-score recorded as -0.315

Looking up "O=C1O[C@H](c2ccccc2)[C@H](c2ccccc2)N2[C@H]1[C@@H](C(=O)Nc1nc3ccccc3s1)[C@]1(C(=O)Nc3ccc(C#CC4=CCCCC4)cc31)[C@H]2c1ccccc1OCCO" , I found its z-score recorded as -2.27

Looking up "CC(=O)Nc1ccc([C@H]2[C@H](C)CC[C@H]3C(=O)N4[C@@H](CC[C@@H](C)[C@@H]4c4ccc(NC(C)=O)cc4)C(=O)N32)cc1" , I found its z-score recorded as 0.673

Looking up "Cc1ccc(S(=O)(=O)N2[C@@H](c3ccccc3)C(C(=O)O)=CC[C@H]2c2ccccc2)cc1" , I found its z-score recorded as -1.38

Looking up "COc1ccc([Si](C)(C)[C@@H]2[C@@H](CCO)O[C@]3(C(=O)N(Cc4ccc(NC(=O)[C@H](C)O)cc4)c4ccccc43)[C@H]2C)cc1" , I found its z-score recorded as -1.61

Looking up "CO[C@@H]1COC(=O)[C@H](C)NC(=O)CC=C[C@@H](C)[C@H](OC)COC(=O)[C@H](C)NC(=O)CC=C[C@H]1C" , I found its z-score recorded as 1.64

Looking up "O=[N+]([O-])c1ccc(C[n+]2ccc3ccc(O)cc3c2)o1" , I found its z-score recorded as 1.25

Looking up "COc1cc(CO)cc(I)c1O[C@H]1C=C(C(=O)NCCO)C[C@@H](NCCc2c[nH]c3ccccc23)[C@@H]1O" , I found its z-score recorded as 0.898

* * *

- SYSTEM: E3 ubiquitin-protein ligase XIAP (Homo sapiens)
- PROTOCOL NOTES: XIAP binders, primary screen, biophysical, small-molecule microarray, fluorescence 635 nm (AID 1181);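 further: score merges 667 nm emission and signal to noise over triplicate slides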
- CONDITIONS: small-molecule microarray binding, higher = more signal
Label FALSE if composite z-score falls below 0.09; label TRUE in every other case.

# MOLECULE, SYSTEM, CATEGORY LABEL
rows = [
    ("CO[C@H]1COC(=O)[C@H](C)NC(=O)CC=C[C@@H](C)[C@H](NS(=O)(=O)c2ccc(C)cc2)COC(=O)[C@@H](OCc2ccccc2)C=C[C@@H]1C", "E3 ubiquitin-protein ligase XIAP (Homo sapiens)", "FALSE"),
]

Check this molecule for composite z-score at or above 0.09: "CCCC=C(CCC)[C@@H](NC(=O)c1ccc(C(F)(F)F)cc1)c1ccccc1"
FALSE

Check this molecule for composite z-score at or above 0.09: "Cc1ccc(S[C@]2(C(=O)NC(C)C)CC(=O)N(Cc3cc(C(F)(F)F)cc(C(F)(F)F)c3)[C@@H]2c2ccc(CO)cc2I)cc1"
FALSE

Check this molecule for composite z-score at or above 0.09: "CCN1C(C)=C(C(=O)OC)[C@@H](c2ccccc2)N2C(=O)[C@](O)(C(=O)OC)[C@@H](c3ccccc3)C(C(=O)c3ccccc3)=C12"
FALSE

Check this molecule for composite z-score at or above 0.09: "C[N+](C)(C)CCCCNC(=O)[C@@H]1C[C@@H]2C(=O)N3CCC[C@H]3C(=O)N2[C@@H]1c1cccc(OCCO)c1"
FALSE

* * *

- Tested on: XIP peptide (Xip251-270)
- PROTOCOL NOTES: small-molecule binders of XIP peptide, primary screen, biochemical, small-molecule microarray, fluorescence 635/667 nm, 0.5 µg/mL protein (AID 1183)
- CONDITIONS: small-molecule microarray binding, fluorescence 635 nm; higher = more signal
Binning of composite z-score into classes: low-valued (below 0.5), mid-valued (0.5 to below 0.7), high-valued (0.7 or more)

Some entries whose results are on file:
# COMPOUND, CATEGORY LABEL
records = [
    ("C=C(CCCC)/C(=C/C[C@@H](OC(=O)c1ccncc1)c1cccc(OCCO)c1)c1cc(C(=O)OC)ccc1OC", "high-valued"),
    ("O=C/C=C/c1ccc(/C=C/c2ccccc2)cc1", "low-valued"),
    ("C=C(COC)C(=O)CC[C@H](OC(=O)c1ccccc1-c1ccccc1C(=O)O)c1cccc(OCCO)c1", "mid-valued"),
    ("O=C1C2C=CC(C(O)C(c3ccccc3)c3ccccc3)N(Nc3ccc([N+](=O)[O-])cc3)C2C(=O)N1c1ccccc1 (stereo unspecified)", "high-valued"),
]

Form: Item = "Cc1ccc(S[C@]2(C(=O)NC(C)C)CC(=O)N(Cc3cc(C(F)(F)F)cc(C(F)(F)F)c3)[C@@H]2c2ccc(CO)cc2I)cc1" ; Class = ?
mid-valued

Form: Item = "CO[C@H]1COC(=O)[C@H](Cc2ccccc2)NC(=O)CC=C[C@@H](C)[C@H](OC)COC(=O)CC=C[C@@H]1C" ; Class = ?
low-valued

Form: Item = "C#CCCCON=C1C[C@@H](O)[C@@H](O)[C@@H]2[C@@H]3C(=O)N(Cc4ccc5c(c4)OCO5)C(=O)[C@@H]3CC[C@@H]12" ; Class = ?
low-valued

Form: Item = "COc1ccc([Si](C)(C)[C@H]2[C@H](CCO)O[C@@]3(C(=O)N(Cc4ccc(N5CCCCC5=O)cc4)c4ccccc43)[C@@H]2C)cc1" ; Class = ?
high-valued

Form: Item = "CN(C)C(=O)[C@@]1(Cc2ccccc2N=[N+]=[N-])N=C(c2ccc(OCCCO)cc2)O[C@H]1c1ccccc1CN=[N+]=[N-]" ; Class = ?
high-valued

Form: Item = CN1C(=O)C2C=CC(C(O)C3CC=CCC3)N(Nc3ccccc3)C2C1=O (stereo unspecified) ; Class = ?
high-valued

Form: Item = "C=CCN1C(=O)[C@@]2(Cc3ccccc3)N=C(c3ccc(OCCCO)cc3)O[C@H]2c2ccccc21" ; Class = ?
high-valued

Form: Item = COC(=O)c1ccc(C#CC(NP(=O)(c2ccccc2)c2ccccc2)c2ccccc2)cc1 (stereo unspecified) ; Class = ?
low-valued

Form: Item = "COC(=O)Cn1c(C(=O)N2CCCC2)cc2c1C[C@H]1CN(C(=O)c3ccccc3)[C@@](Cc3ccc(OC)cc3)(C(=O)OC)[C@@H]21" ; Class = ?
mid-valued

Form: Item = C=CC[C@]1(C(=O)NCC(O)CO)N=C(c2ccc(OCCCO)cc2)O[C@H]1c1ccccc1 (stereo partly specified) ; Class = ?
low-valued

* * *

- System: Neuregulin-1 EGF-like domain
- PROTOCOL NOTES: binders of neuregulin-1 EGF-like domain, primary screen, biochemical, small-molecule microarray, 635 nm fluorescence (AID 1081);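 further: binding of the protein to compounds printed on small-molecule microarray slides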
- CONDITIONS: small-molecule microarray binding, higher = more signal
Label 0.0 if composite z-score falls below 1; label 1.0 in every other case.

# MOLECULE, CATEGORY LABEL
records = [
    ("Cc1ccc(S(=O)(=O)N[C@H]2COC(=O)CC=C[C@H](C)COC(=O)N[C@@H](C)C(=O)CC=C[C@@H]2C)cc1", 0.0),
    ("COc1ccc([Si](C)(C)[C@@H]2[C@@H](CC(=O)N(CCO)Cc3ccccc3)O[C@]3(C(=O)N(Cc4cccc(N5CCC5=O)c4)c4ccccc43)[C@H]2C)cc1", 1.0),
    ("CCCC=C(CCC)[C@@H](NC(=O)c1ccccc1)c1ccccc1", 0.0),
    ("O=C1C[C@@](C(=O)NC2CC2)(c2ccc([N+](=O)[O-])cc2)[C@@H](c2ccc(CO)cc2I)N1CC12CC3CC(CC(C3)C1)C2", 1.0),
]

Query molecule follows.
Check this molecule for composite z-score at or above 1: O=C1NC(=O)C2C1C=CC(C(O)C=Cc1ccc([N+](=O)[O-])cc1)N2Nc1ccccn1 (stereo not given)
0.0
